Listed here are binders together with their documented In Vitro Activity Compared to Native Peptide (%) vs. GIP (relative titer from cAMP EC50).
Biological target: T1, human GIP receptor (human, UniProt P48546 22-466)
T1 sequence (looked up): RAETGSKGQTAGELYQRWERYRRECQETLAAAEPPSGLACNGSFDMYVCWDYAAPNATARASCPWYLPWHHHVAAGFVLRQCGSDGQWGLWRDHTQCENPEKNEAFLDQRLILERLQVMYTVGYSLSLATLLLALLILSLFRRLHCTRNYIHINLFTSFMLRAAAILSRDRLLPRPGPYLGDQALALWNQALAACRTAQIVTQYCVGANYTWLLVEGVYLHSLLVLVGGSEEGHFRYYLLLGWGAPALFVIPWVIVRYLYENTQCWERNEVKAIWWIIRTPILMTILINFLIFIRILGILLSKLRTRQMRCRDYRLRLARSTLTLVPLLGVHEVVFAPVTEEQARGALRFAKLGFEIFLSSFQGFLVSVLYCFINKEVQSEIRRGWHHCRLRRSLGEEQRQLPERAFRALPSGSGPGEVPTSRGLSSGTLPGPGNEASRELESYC
Assay: cell-based or functional assay
Bridge positions count the residues as written; N and C are the ends. Square brackets hold non-standard residues; d marks the D form. Ends that are not written are not given here. * marks the point of attachment. Acetyl(2-(4-imidazolyl)) = O=C(Cc1c[nH]cn1)*; Aib = CC(C)(N)C(=O)O
measure: In Vitro Activity Compared to Native Peptide (%) vs. GIP (relative titer from cAMP EC50)

{"columns": ["binder", "numeric readout"],
 "data": [
  ["[Acetyl(2-(4-imidazolyl))][Aib]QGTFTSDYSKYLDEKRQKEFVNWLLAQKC (bridge 16-20; not fully specified (bridges)) [trigonal agonist of SEQ ID NO: 39]", 0.7],
  ["Y[Aib]QGTFTSDYSKYLDEKRAKEFVQWLLDHHCSSGQPPPS (bridge 16-20; not fully specified (bridges)) [trigonal agonist of SEQ ID NO: 10]", 3.7],
  ["Y[Aib]QGTFTSDYSKCLDEKAAKEFVQWLLDHHPSSGQPPPS (bridge 16-20; not fully specified (bridges)) [trigonal agonist of SEQ ID NO: 23]", 107],
  ["Y[Aib]QGTFTSDYSKCLDERAAKEFVQWLLDHHPSSGQPPPS (bridge 16-20; not fully specified (bridges)) [trigonal agonist of SEQ ID NO: 24]", 62.8],
  ["H[Aib]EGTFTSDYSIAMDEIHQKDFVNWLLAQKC (lactam 16-20) [trigonal agonist of SEQ ID NO: 34]", 1.4]
]}
